Each recorded value in this set is attributed to PubChem BioAssay AID1159580.

test: chemical genetic growth profiling, strain panel (AID 1159580);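 note: tested at 20 µM; growth read once vehicle control cultures reached saturation at 30 °C; 1 = growth at the plate median or of vehicle wells; lower values mean less growth of the strain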; settings: S. cerevisiae deletion strains, growth OD, locus YOR144C, strain elg1, active compounds read low
Out of some 5,500 compounds screened, about 2,000 (36%) were called active. Inconclusive results (about 18%) are left out. The list shows a part of the results.
READOUT: normalized growth

compound=CCCCN(CCCC)CCCOC(=O)c1ccc(N)cc1 readout="normalized growth" meas_value="0.986 (inactive)"

Record request: normalized growth value, item O=C1OC(c2ccc(O)cc2)(c2ccc(O)cc2)c2ccccc21
0.987 (inactive)

Record request: normalized growth value, item CCCCCCOc1ccccc1C(N)=O
0.485 (active)

Record request: normalized growth value, item COc1ccc2c(c1)CCC(c1ccccc1)=C2c1ccc(OCCN2CCCC2)cc1
0.813 (active)

Record request: normalized growth value, item CCCCNc1ccc(C(=O)OCCN(C)C)cc1
1.01 (inactive)

Record request: normalized growth value, item C[C@@H]1C(=O)OC2[C@H](O)C34[C@@H]5OC(=O)[C@@]3(O[C@@H]3OC(=O)[C@H](O)[C@@]34[C@H](C(C)(C)C)[C@H]5O)[C@]21O (stereo partly specified)
1.01 (inactive)

Record request: normalized growth value, item CCC(C)c1cnc(CC(C)C)c(=O)n1O (stereo unspecified)
1.01 (inactive)

Record request: normalized growth value, item COc1cc(-c2coc3cc(OC)c(OC)c(OC)c3c2=O)cc(OC)c1OC
0.997 (inactive)

Record request: normalized growth value, item Cc1cc(-c2ccccc2)nnc1NCCN1CCOCC1
0.967 (inactive)

Record request: normalized growth value, item CCN(CC)CCOC(=O)c1ccc(N)cc1
0.994 (inactive)

Record request: normalized growth value, item CCCCOC(=O)c1ccc(N)cc1
0.961 (inactive)
